# ASSAY_OVERVIEW: Bio-availability: blood plasma level after injection of calves
# Format: in vivo
# MEASUREMENT_CONTEXT: bovine, plasma, 1 mg/kg, day 84, calf 2, 1 mg/kg injection
REPORTED_METRIC: concentration at 2016 h (ng/mL)
Express your answer in ng/mL, writing the number without its unit.

Q) Would you kindly share the measured concentration at 2016 h for "O=C(NC(=O)c1c(F)cccc1F)Nc1ccc(Cl)c(Oc2ncc(C(F)(F)F)cc2Cl)c1" ?
A) 7

###

# ASSAY_OVERVIEW: Bio-availability: blood plasma level after injection of calves
# Format: in vivo
# MEASUREMENT_CONTEXT: bovine, plasma, 1 mg/kg, day 63, calf 2, 1 mg/kg injection
REPORTED_METRIC: concentration at 1512 h (ng/mL)
Express your answer in ng/mL, writing the number without its unit.

Q) Would you kindly share the measured concentration at 1512 h for "O=C(NC(=O)c1c(F)cccc1F)Nc1ccc(Cl)c(Oc2ncc(C(F)(F)F)cc2Cl)c1" ?
A) 6

###

# ASSAY_OVERVIEW: Bio-availability: blood plasma level after injection of calves
# Format: in vivo
# MEASUREMENT_CONTEXT: bovine, plasma, 1 mg/kg, day 49, calf 2, 1 mg/kg injection
REPORTED_METRIC: concentration at 1176 h (ng/mL)
Express your answer in ng/mL, writing the number without its unit.

Q) Would you kindly share the measured concentration at 1176 h for O=C(NC(=O)c1c(F)cccc1F)Nc1ccc(Cl)c(Oc2ncc(C(F)(F)F)cc2Cl)c1 [(A)] ?
A) 4

###

# ASSAY_OVERVIEW: Bio-availability: blood plasma level after injection of calves
# Format: in vivo
# MEASUREMENT_CONTEXT: bovine, plasma, 1 mg/kg, day 35, calf 2, 1 mg/kg injection
REPORTED_METRIC: concentration at 840 h (ng/mL)
Express your answer in ng/mL, writing the number without its unit.

Q) Would you kindly share the measured concentration at 840 h for "O=C(NC(=O)c1c(F)cccc1F)Nc1ccc(Cl)c(Oc2ncc(C(F)(F)F)cc2Cl)c1" ?
A) 10

###

# ASSAY_OVERVIEW: Bio-availability: blood plasma level after injection of calves
# Assay type: in vivo
# MEASUREMENT_CONTEXT: bovine, plasma, 1 mg/kg, day 42, calf 1, 1 mg/kg injection
REPORTED_METRIC: concentration at 1008 h (ng/mL)
Express your answer in ng/mL, writing the number without its unit.

Q) Would you kindly share the measured concentration at 1008 h for O=C(NC(=O)c1c(F)cccc1F)Nc1ccc(Cl)c(Oc2ncc(C(F)(F)F)cc2Cl)c1 [(A)] ?
A) 9

###

# ASSAY_OVERVIEW: Bio-availability: blood plasma level after injection of calves
# Assay type: in vivo
# MEASUREMENT_CONTEXT: bovine, plasma, 1 mg/kg, day 56, calf 2, 1 mg/kg injection
REPORTED_METRIC: concentration at 1344 h (ng/mL)
Express your answer in ng/mL, writing the number without its unit.

Q) Would you kindly share the measured concentration at 1344 h for "O=C(NC(=O)c1c(F)cccc1F)Nc1ccc(Cl)c(Oc2ncc(C(F)(F)F)cc2Cl)c1" ?
A) 5

###

# ASSAY_OVERVIEW: Bio-availability: blood plasma level after injection of calves
# Format: in vivo
# MEASUREMENT_CONTEXT: bovine, plasma, 1 mg/kg, day 56, calf 1, 1 mg/kg injection
REPORTED_METRIC: concentration at 1344 h (ng/mL)
Express your answer in ng/mL, writing the number without its unit.

Q) Would you kindly share the measured concentration at 1344 h for "O=C(NC(=O)c1c(F)cccc1F)Nc1ccc(Cl)c(Oc2ncc(C(F)(F)F)cc2Cl)c1" ?
A) 5
